protocol.summary: Compound was evaluated for its acute toxicity in rat
Assay type: organism-based
condition.details: in vivo
Record form. Attribute: LD50. Fill in for each entry.
Give bare numbers, in mg/kg.

Reference set (5 entries):
smiles.text	numeric.result
CN1CCC[C@H]2c3cccnc3CC[C@H]21	200
CCCN1CCC[C@@H]2c3cccnc3CC[C@H]21	183
Cc1cn2cccc3c2c1C[C@@H]1[C@@H]3CCCN1C	45
CCN1CCC[C@@H]2c3cccn4cc(C)c(c34)C[C@H]21	228
CCCN1CCC[C@@H]2c3cccn4cc(C)c(c34)C[C@H]21	413

Please look at the following compound next.
Query: Hello, please tell me recorded LD50 for this one: `CCCN1CCC[C@H]2c3cccnc3CC[C@H]21`
Reply: 139
